B1: ELF3 (parent)
chain: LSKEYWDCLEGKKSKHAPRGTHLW

variants of: B1; assay: protein stability index of a GFP-peptide fusion (GPS, HEK-293T) (PSI 1-6); higher = more stable; details: c terminus: a fixed tail appended;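 further: lentivirally expressed fusions sorted by FACS into six bins by GFP to DsRed ratio, PSI derived from sequencing read proportions per bin multiplied by bin number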
PARAMETER: protein stability index
Give bare numbers.

# count of solved cases: 10
{"MUTATIONS": "S2D", "NUMERIC_READOUT": 3.11}
{"MUTATIONS": "G20D", "NUMERIC_READOUT": 2.96}
{"MUTATIONS": "L9H", "NUMERIC_READOUT": 3.26}
{"MUTATIONS": "K12N", "NUMERIC_READOUT": 3.68}
{"MUTATIONS": "G11D", "NUMERIC_READOUT": 3.19}
{"MUTATIONS": "R19D", "NUMERIC_READOUT": 3.21}
{"MUTATIONS": "D7E", "NUMERIC_READOUT": 2.77}
{"MUTATIONS": "Y5A", "NUMERIC_READOUT": 3.23}
{"MUTATIONS": "K15S", "NUMERIC_READOUT": 3.04}
{"MUTATIONS": "P18D", "NUMERIC_READOUT": 3}

Quick one: give me protein stability index for each item below, same order please.
1. S14H
2. D7F
3. L23M
4. T21P
5. D7T

Outgoing:
2.5
1.83
3.27
2.57
2.76

Quick one: give me protein stability index for each item below, same order please.
1. G20W
2. K15I
3. S14F
4. G20F
5. R19H
6. L1K
7. K15M

Outgoing:
[1.94, 2.61, 1.99, 1.75, 2.66, 3.02, 3.18]
